Form field: MIC (one value per entry).
- System: Acinetobacter baumannii
- measurement description: Antimicrobial activity against imipenem and meropenem-resistant Acinetobacter baumannii isolate CY7 by CLSI agar dilution method
- Format: functional
observable: MIC (µg/mL)

INSERT INTO measurements (molecule, modifier, test_value) VALUES
  ('C[C@@H](O)[C@H]1C(=O)N2C(C(=O)O)=C(S[C@@H]3CN[C@H](C(=O)N(C)C)C3)[C@H](C)[C@H]12', '=', 64),
  ('C[C@@H](O)[C@H]1C(=O)N2C(C(=O)O)=C(SCCNC=N)C[C@H]12 [IMIPENEM ANHYDROUS]', '=', 64),
  ('CO[C@H]1/C=C/O[C@@]2(C)Oc3c(C)c(O)c4c(O)c(c(/C=N/N5CCN(C)CC5)c(O)c4c3C2=O)NC(=O)/C(C)=C\C=C\[C@H](C)[C@H](O)[C@@H](C)[C@@H](O)[C@@H](C)[C@H](OC(C)=O)[C@@H]1C', '=', 4),
  ('NCC[C@H](O)C(=O)N[C@@H]1C[C@H](N)[C@@H](O[C@H]2O[C@H](CN)[C@@H](O)[C@H](O)[C@H]2O)[C@H](O)[C@H]1O[C@H]1O[C@H](CO)[C@@H](O)[C@H](N)[C@H]1O', '>', 256),
  ('CN(C)c1ccc(O)c2c1C[C@H]1C[C@H]3[C@H](N(C)C)C(O)=C(C(N)=O)C(=O)[C@@]3(O)C(O)=C1C2=O', '=', 0.5),
  ('C[C@H]1COc2c(N3CCN(C)CC3)c(F)cc3c(=O)c(C(=O)O)cn1c23.C[C@H]1COc2c(N3CCN(C)CC3)c(F)cc3c(=O)c(C(=O)O)cn1c23.O', '>', 32),
  ('CC(C)(O/N=C(\C(=O)N[C@@H]1C(=O)N2C(C(=O)[O-])=C(C[n+]3ccccc3)CS[C@H]12)c1csc(N)n1)C(=O)O', '>', 256);

* * *

Form field: MIC (one value per entry).
- Test system: Acinetobacter baumannii
- measurement description: Antimicrobial activity against imipenem and meropenem-resistant Acinetobacter baumannii isolate FW-F1 by CLSI agar dilution method
- Type: functional
observable: MIC (µg/mL)

INSERT INTO results (compound, observable, modifier, test_value) VALUES
  ('C[C@@H](O)[C@H]1C(=O)N2C(C(=O)O)=C(S[C@@H]3CN[C@H](C(=O)N(C)C)C3)[C@H](C)[C@H]12', 'MIC', '=', 64),
  ('C[C@@H](O)[C@H]1C(=O)N2C(C(=O)O)=C(SCCNC=N)C[C@H]12 [IMIPENEM ANHYDROUS]', 'MIC', '=', 64),
  ('CO[C@H]1/C=C/O[C@@]2(C)Oc3c(C)c(O)c4c(O)c(c(/C=N/N5CCN(C)CC5)c(O)c4c3C2=O)NC(=O)/C(C)=C\C=C\[C@H](C)[C@H](O)[C@@H](C)[C@@H](O)[C@@H](C)[C@H](OC(C)=O)[C@@H]1C', 'MIC', '=', 8),
  ('CN(C)c1ccc(O)c2c1C[C@H]1C[C@H]3[C@H](N(C)C)C(O)=C(C(N)=O)C(=O)[C@@]3(O)C(O)=C1C2=O', 'MIC', '=', 2),
  ('CC(C)(O/N=C(\C(=O)N[C@@H]1C(=O)N2C(C(=O)[O-])=C(C[n+]3ccccc3)CS[C@H]12)c1csc(N)n1)C(=O)O', 'MIC', '>', 256),
  ('NCC[C@H](O)C(=O)N[C@@H]1C[C@H](N)[C@@H](O[C@H]2O[C@H](CN)[C@@H](O)[C@H](O)[C@H]2O)[C@H](O)[C@H]1O[C@H]1O[C@H](CO)[C@@H](O)[C@H](N)[C@H]1O', 'MIC', '>', 256),
  ('C[C@H]1COc2c(N3CCN(C)CC3)c(F)cc3c(=O)c(C(=O)O)cn1c23.C[C@H]1COc2c(N3CCN(C)CC3)c(F)cc3c(=O)c(C(=O)O)cn1c23.O', 'MIC', '=', 4);

* * *

- System: Acinetobacter baumannii
- measurement description: Antimicrobial activity against imipenem and meropenem-resistant Acinetobacter baumannii isolate ZJ32 by CLSI agar dilution method
- Assay type: functional
observable: MIC (µg/mL)

INSERT INTO results (compound, observable, modifier, test_value) VALUES
  ('C[C@@H](O)[C@H]1C(=O)N2C(C(=O)O)=C(SCCNC=N)C[C@H]12 [IMIPENEM ANHYDROUS]', 'MIC', '=', 64),
  ('NCC[C@H](O)C(=O)N[C@@H]1C[C@H](N)[C@@H](O[C@H]2O[C@H](CN)[C@@H](O)[C@H](O)[C@H]2O)[C@H](O)[C@H]1O[C@H]1O[C@H](CO)[C@@H](O)[C@H](N)[C@H]1O [AMIKACIN]', 'MIC', '>', 256),
  ('C[C@@H](O)[C@H]1C(=O)N2C(C(=O)O)=C(S[C@@H]3CN[C@H](C(=O)N(C)C)C3)[C@H](C)[C@H]12 [MEROPENEM]', 'MIC', '=', 32),
  ('CN(C)c1ccc(O)c2c1C[C@H]1C[C@H]3[C@H](N(C)C)C(O)=C(C(N)=O)C(=O)[C@@]3(O)C(O)=C1C2=O [MINOCYCLINE]', 'MIC', '=', 16),
  ('C[C@H]1COc2c(N3CCN(C)CC3)c(F)cc3c(=O)c(C(=O)O)cn1c23.C[C@H]1COc2c(N3CCN(C)CC3)c(F)cc3c(=O)c(C(=O)O)cn1c23.O [LEVOFLOXACIN]', 'MIC', '=', 16),
  ('CO[C@H]1/C=C/O[C@@]2(C)Oc3c(C)c(O)c4c(O)c(c(/C=N/N5CCN(C)CC5)c(O)c4c3C2=O)NC(=O)/C(C)=C\C=C\[C@H](C)[C@H](O)[C@@H](C)[C@@H](O)[C@@H](C)[C@H](OC(C)=O)[C@@H]1C [RIFAMPIN]', 'MIC', '=', 16),
  ('CC(C)(O/N=C(\C(=O)N[C@@H]1C(=O)N2C(C(=O)[O-])=C(C[n+]3ccccc3)CS[C@H]12)c1csc(N)n1)C(=O)O [CEFTAZIDIME]', 'MIC', '=', 64);
